Reference source for all entries: ChEMBL document CHEMBL2057129

Hi! I'm sharing some IC50 results obtained with UniProt P62942.
Sequence (P62942 whole entry): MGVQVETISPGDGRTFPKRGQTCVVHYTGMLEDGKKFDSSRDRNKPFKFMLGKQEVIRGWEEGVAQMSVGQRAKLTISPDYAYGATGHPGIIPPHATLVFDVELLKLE
Quantity Kind: IC50

compound="COc1ccc(CC[C@@H](OC(=O)[C@@H]2CCCCN2C(=O)C(=O)[C@]2(O)CCCC[C@H]2C)c2cccc(OCCN3CCOCC3)c2)cc1OC (mixture of isomers)" reported_measurement="60 nM"
compound=CCC(C)(C)C(=O)C(=O)N1CCSC[C@H]1C(=O)O[C@H](CCc1ccc(OC)c(OC)c1)c1cccc(OCC(=O)O)c1 reported_measurement="1290 nM"
compound="COc1ccc(CC[C@@H](OC(=O)[C@@H]2CCCCN2C(=O)C(=O)[C@]2(O)CCCC[C@H]2C)c2cccc(OCC(=O)O)c2)cc1OC (mixture of isomers)" reported_measurement="60 nM"
compound=CCC(C)(C)C(=O)C(=O)N1CCCC[C@H]1C(=O)O[C@H](CCc1ccc(OC)c(OC)c1)c1cccc(OCCN2CCOCC2)c1 reported_measurement="100 nM"
